assay: Acute toxicity (LD50) by intraperitoneal injection to mice; conditions: mouse, in vivo, ip, mortality 48 hours after injection
measurement-label: LD50 at 48 h (mg/kg)
Unit mg/kg implied. Number only.

compound="O=C(c1ccccn1)N1N=CCC1c1ccccc1 (centres unmarked) [Compound 3]" measurement_label="LD50 at 48 h" measured_result=560

q: Specify LD50 at 48 h for C1=NNC(c2ccccc2)C1 (centres unmarked) [Compound 31, 5-Phenyl-2-pyrazoline] and stop.
a: 540

q: Specify LD50 at 48 h for Clc1ccccc1C1CC=NN1 (centres unmarked) [Compound 34, 5-(2-Chlorophenyl)-2-pyrazoline] and stop.
a: 600

q: Specify LD50 at 48 h for S=C(Nc1cccnc1)N1N=CCC1c1ccccc1 (centres unmarked) [Compound 66] and stop.
a: 560

q: Specify LD50 at 48 h for O=C(c1cccnc1)N1N=CCC1c1ccccc1F (centres unmarked) [Compound 9] and stop.
a: 830

q: Specify LD50 at 48 h for COc1ccccc1C1CC=NN1 (centres unmarked) [Compound 40, 5-(2-Methoxylphenyl)-2-pyrazoline] and stop.
a: 560

q: Specify LD50 at 48 h for Cc1ccccc1C1CC=NN1 (centres unmarked) [Compound 37, 5-(2-Methylphenyl)-2-pyrazoline] and stop.
a: 680

q: Specify LD50 at 48 h for O=C(c1cccnc1)N1N=CCC1c1ccc(Cl)cc1 (centres unmarked) [Compound 11] and stop.
a: 710
